# Target under test: serotonin 1A (5HT1A) receptor (Rattus norvegicus)
# Sequence (P19327 1-422): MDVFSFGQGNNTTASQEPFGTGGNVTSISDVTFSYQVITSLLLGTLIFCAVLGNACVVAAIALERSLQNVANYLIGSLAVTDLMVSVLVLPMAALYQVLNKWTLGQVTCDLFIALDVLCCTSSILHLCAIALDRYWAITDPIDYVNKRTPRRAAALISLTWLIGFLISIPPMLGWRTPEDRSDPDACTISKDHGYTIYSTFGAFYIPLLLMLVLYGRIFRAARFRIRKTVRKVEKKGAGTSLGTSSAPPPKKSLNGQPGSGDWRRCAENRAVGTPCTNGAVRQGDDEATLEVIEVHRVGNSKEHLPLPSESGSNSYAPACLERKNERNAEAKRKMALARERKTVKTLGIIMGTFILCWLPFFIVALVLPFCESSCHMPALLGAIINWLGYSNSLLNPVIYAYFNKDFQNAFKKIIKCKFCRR
Property: pKi; scope: individual molecules
Please express pKi as -log10 of the molar concentration.

In the examples that follow, each entry is paired with its recorded pKi.
[Q] Param item = COc1cc(C)nc(N2CCN(CCCCOc3cnc4c(n3)CCCC4)CC2)n1 ; retrieve measured pKi.
[A] 7.96

[Q] Please give the measured pKi for this molecule: Cc1cc(C)nc(N2CCN(CCCCOc3cnc4c(n3)CCCC4)CC2)c1
[A] 8.17

New cases:
[Q] Tell me the measured pKi of c1ccc(N2CCN(CCCCCOc3cnc4c(n3)CCCC4)CC2)nc1 , please.
[A] 8.08
